# Tested on: bfGnRHR-3
# Experimental details: Ligand-receptor binding assay, I125-GnRH-2 competition, membranes of GH3 cells expressing bfGnRHR-3
# Design: species or system bullfrog
# Condition description: log of IC50 (negative values); competition with I125-GnRH-2, 4° C., 16 hours
# Method: To determine the binding affinity between GnRH and GnRH receptors, GnRH-2 was radiolabeled with I^125. The GH3 cells expressing bfGnRHR-1, bfGnRHR-2, bfGnRHR-3, and rat GnRHR constructed in Example 2-3 above were cultured on 100-mm dishes. […] After the reaction was completed, 1^125-GnRH-2 bound to the receptors was filtered using a Brandel harvester, and cpm was measured using a γ-counter. […]
Where a SMILES comes first, the peptide text is derived from it. [ ]: non-standard residue; d: D form. dPhe(4-Cl) = N[C@H](Cc1ccc(Cl)cc1)C(=O)O; d2Nal = N[C@H](Cc1ccc2ccccc2c1)C(=O)O; dCit = NC(=O)NCCC[C@@H](N)C(=O)O; d3Pal = N[C@H](Cc1cccnc1)C(=O)O
Measurement name: Binding affinity (log IC50 value)

Query block: Entry under review: CC(=O)N[C@H](Cc1ccc2ccccc2c1)C(=O)N[C@H](Cc1ccc(Cl)cc1)C(=O)N[C@H](Cc1cccnc1)C(=O)N[C@@H](CO)C(=O)N[C@@H](Cc1ccc(O)cc1)C(=O)N[C@H](CCCNC(N)=O)C(=O)N[C@@H](CC(C)C)C(=O)N[C@@H](CCCNC(=N)N)C(=O)N1CCC[C@H]1C(=O)N[C@H](C)C(N)=O [Cetrorelix, reference compound] (Ac-[d2Nal][dPhe(4-Cl)][d3Pal]SY[dCit]LRP[dA]-NH2) . Reported Binding affinity (log IC50 value)?
Result block: −7.11 ± 0.08
